test system: OVCAR-3; test: NCI tumour cell line growth inhibition, 48 h
Activity calls are given as the source filed them. Rule as the data show it: active = GI50 up to about 1.1 µM and inactive = higher.
Please provide measured GI50 for the entries that follow.

Example cases with answers are listed next.
CO/N=C/c1c(-c2ccc(Cl)cc2)c(/C=N/OC)n2c1sc1ccccc12 = > 100 µM (inactive)
COc1ccc(N2CCN(Cc3c(C(C)=O)[n+]([O-])c4ccccc4[n+]3[O-])CC2)cc1 = > 100 µM (inactive)
O=S(=O)(N1CCCCN(S(=O)(=O)C(F)(F)F)CCCN(S(=O)(=O)C(F)(F)F)CCCN(S(=O)(=O)C(F)(F)F)CCCCN(S(=O)(=O)C(F)(F)F)CCCN(S(=O)(=O)C(F)(F)F)CCC1)C(F)(F)F = 38.4 µM (inactive)
COC[C@@H](/N=C/C(C)(C)C)C(C)C = > 100 µM (inactive)
O=C(O)C12CCCCC1CCCC2 (centres undefined) = > 100 µM (inactive)
CNC(=O)N(CCC#N)CCN(C(=O)N(C)C)c1ccccc1 = > 100 µM (inactive)

Quick one: give me GI50 for each item below, same order please.
1. COc1ccc(N2C(=O)/C(=C/c3ccc(N(CCC#N)CCC#N)cc3C)N=C2c2cc([N+](=O)[O-])ccc2Cl)cc1
2. BC(=O)NC(CC(C)C)C(=O)NCC(=O)NC1c2ccsc2C(=O)C1O.CN(C)C (centres undefined)
3. CCOC(=O)CC1(N)CC2c3ccccc3OC(=O)C2C(=O)N1 (centres undefined)

1. 3.35 µM (inactive)
2. > 100 µM (inactive)
3. > 100 µM (inactive)

---

Please respond with reported GI50 for every item in the list.
system: SF-295; assay: NCI tumour cell line growth inhibition, 48 h
The source made the active and inactive calls. Rule as the data show it: active = GI50 up to about 1.1 µM and inactive = higher.

Examples with answers:
Cc1cc(-c2ccccc2)nc2oc(=O)n(C)c12 = 39.5 µM (inactive)
COc1cccc(C2c3cc4c(cc3OC(O)(CO)C2C(=O)O)OCO4)c1.COc1cccc(C2c3cc4c(cc3OC3(O)COC(=O)C23)OCO4)c1 (stereo not drawn) = 39.9 µM (inactive)
COc1cc2c(cc1OC)C13CCN4C=C5CCOC6CC(=O)N2C1C6C5CC43 (stereo not drawn) = > 100 µM (inactive)
CCN(CC)CCOCCOCC1(c2ccc(Cl)c(Cl)c2)CCCCC1 = 5.83 µM (inactive)
O=C(O)Cc1cc(F)ccc1C(=O)O = > 100 µM (inactive)

# return GI50 for each item in the list
1. COc1ccc(/C(C#N)=C/c2ccc(OC)c(OC)c2)cc1
2. C[C@@H](c1ccccc1)N1CN(C(=O)OCc2ccccc2)C(C)(C)CC1=O

1. > 100 µM (inactive)
2. > 100 µM (inactive)

---

system: U-251; assay: NCI tumour cell line growth inhibition, 48 h
Active and inactive are the calls of the source. Cut-off read from the data, not from the text of the source: active = GI50 up to about 1.1 µM and inactive = higher.
Return exactly one item of active, inactive

Please review the following examples before continuing.
O=c1ccc2ccc(O)c3c4c(O)ccc5ccc(=O)c(c1c23)c54 = inactive
CC1(C)CC[C@]2(C(=O)O)CCC3(C)C(=CCC4[C@@]5(C)CC[C@H](OC6OCC(O)C(O)C6OC6OC(CO)C(O)C(O)C6O)C(C)(C)C5CC[C@]43C)C2C1 (some centres undefined) = inactive

Per the records of this test, what outcome belongs to "CCOC(=O)c1sc2nc(SC)nc3c2c1NCN3c1ccc2c(c1)OCCCO2" ?
inactive

Assay outcome for COc1cccc(C2c3cc4c(cc3OC(O)(CO)C2C(=O)O)OCO4)c1.COc1cccc(C2c3cc4c(cc3OC3(O)COC(=O)C23)OCO4)c1 (centres undefined) : what was it?
inactive

How did this test come out for "O=C(OCC(Cl)(Cl)Cl)N1CC[C@H](C2CCCCC2)C1" ?
active

Test call for this molecule, please: N#CC12CC3=C(N=C1NC1=C(CCc4ccccc41)C2)c1ccccc1CC3 (centres undefined)
inactive

Lab log entry: O=C(/N=S(/NC(=O)c1ccccc1)C(Cl)(Cl)Cl)c1ccccc1 (centres undefined) — outcome as called in the assay?
inactive

Which outcome was assigned to COC(=O)C(NC(=O)C12CCC(C)(C(=O)O1)C2(C)C)c1cc(C(C)(C)C)c(O)c(C(C)(C)C)c1 (centres undefined) in this test?
inactive

Called result for "O=S(=O)(O)c1ccc(/N=N/c2ccccc2)cc1"
inactive

---

system: SNB-19; experiment: NCI tumour cell line growth inhibition, 48 h
Calls of active or inactive are those of the source. Cut-off read from the data, not from the text of the source: active = GI50 up to about 1.1 µM and inactive = higher.
One label from this list, please: label 1 for active, label 0 for inactive

Recorded results for 3 compounds are shown here.
O=c1ccc2ccc(O)c3c4c(O)ccc5ccc(=O)c(c1c23)c54 = label 0
COc1cc(/C=C/C2=NN(c3cccc(S(=O)(=O)O)c3)C3(C2)C(Cl)C(=O)N3c2nc3ccccc3s2)ccc1O (centres undefined) = label 0
COc1cc2cc(C(=O)N3CC(CCl)c4c3cc(NC(=O)C(C)Nc3c([N+](=O)[O-])cc(C(=O)NCCN(C)C)cc3[N+](=O)[O-])c3ccccc43)[nH]c2c(OC)c1OC (centres undefined) = label 1

Moving on to the next compound.
What classification did "Oc1[nH]c(Nc2cc(Cl)cc(Cl)c2)nc2ncnc1-2" end up with in this test?
label 0

---

tested on: SR; assay: NCI tumour cell line growth inhibition, 48 h
The source made the active and inactive calls. No stated cut-off is given here; in the data, active = GI50 up to about 1.1 µM and inactive = higher.
Returns: one label drawn from TRUE (active), FALSE (inactive)

CC12OC1(C)C1C(=O)OCC1C2=O (stereo unspecified) = FALSE
O=C(NC(=O)c1c(Cl)nc2sccn12)Nc1ccc(Cl)cc1 = FALSE
CC(=O)N/N=C1/CC[C@@]2(C)C(=CC[C@H]3C4CCC(C(C)CCCC(C)C)[C@@]4(C)CCC32)C1(C)C (stereo partly specified) = FALSE

Outcome logged for "O=C1C=C(Nc2ccccc2C(=O)c2ccccc2)c2ccccc2C1=O" in this assay:
FALSE

State the result this test recorded for CCOC(=O)c1ccc(NC2Oc3cc4c(cc3C(c3cc(OC)c(OC)c(OC)c3)C2C)OCO4)cc1 (stereo unspecified) .
TRUE

State the result this test recorded for COC(=O)C(NC(=O)C12CCC(C)(C(=O)O1)C2(C)C)c1cc(C(C)(C)C)c(O)c(C(C)(C)C)c1 (stereo unspecified) .
FALSE

GET /call?item= "CCOC(=O)C(=O)Nc1c(F)cc(F)cc1Br" returns the recorded outcome of this test.
FALSE

Identify the outcome logged in this assay for the compound shown: "ClCC1(CCl)COC1"
FALSE

---

test system: RPMI-8226; experiment: NCI tumour cell line growth inhibition, 48 h
The source made the active and inactive calls. Cut-off read from the data, not from the text of the source: active = GI50 up to about 1.1 µM and inactive = higher.
So I've got a bunch of compounds here, and I need their GI50 values.

N#Cc1cccc2c1Sc1ccccc1N2 = 27.7 µM (inactive)
O=c1ccc2ccc(O)c3c4c(O)ccc5ccc(=O)c(c1c23)c54 = 2.9 µM (inactive)
COc1cc(/C=C2\C(=O)N(c3cccc(Cl)c3)C(c3ccccc3)S2(=O)=O)cc(OC)c1OC (stereo not given) = 23.2 µM (inactive)

Report GI50 for each item below.
1. CC(=O)Oc1ccccc1C(=O)Nc1ncc([N+](=O)[O-])s1 [NITAZOXANIDE]
2. COc1ccc2c(=O)c(-c3cc(OC)c(OC)cc3OC)coc2c1

10.3 µM (inactive)
2.35 µM (inactive)

---

test system: RPMI-8226; experiment: NCI tumour cell line growth inhibition, 48 h
Activity calls are given as the source filed them. Rule as the data show it: active = GI50 up to about 1.1 µM and inactive = higher.
Task for the reader: assign each of the following compounds its reported GI50.

Cc1nc(Nc2ccc(Cl)c(Cl)c2)sc1C(/C=C/c1ccc2c(c1)OCO2)=N/Nc1ccc([N+](=O)[O-])cc1[N+](=O)[O-] = > 82.2 µM (inactive)

// input: 2 compounds below; output: GI50 for each
1. O=C(/N=S(/NC(=O)c1ccccc1)C(Cl)(Cl)Cl)c1ccccc1 (centres undefined)
2. COc1cc(C2C(C(=O)O)=C(CO)Oc3cc4c(cc32)OCO4)cc(OC)c1O (centres undefined)

1: 41.2 µM (inactive); 2: > 100 µM (inactive)

Quick one: GI50 of "C[C@]12CC[C@H]3[C@@H](CCC4=CC(=O)CC[C@@]43C)[C@@H]1CC[C@@H]2C(=O)COS(=O)(=O)c1ccc(Br)cc1" ?
2.35 µM (inactive)

---

tested on: OVCAR-5; assay: NCI tumour cell line growth inhibition, 48 h
Active and inactive are the calls of the source. Cut-off read from the data, not from the text of the source: active = GI50 up to about 1.1 µM and inactive = higher.
metricName: GI50

Here are 3 compounds together with their reported answers.
CN(C)/C=N/Cc1ccc2c(c1)OCO2 = > 100 µM (inactive)
O=C(N/C(=C\c1ccc(Br)cc1)c1nc2ccccc2s1)c1ccccc1 = > 100 µM (inactive)
CN(C)CCNC(=O)c1cccc2ccc(-c3ccc(F)cc3)nc12 = 7.55 µM (inactive)

List reported GI50 for each of these compounds:
1. COc1cc2c[n+](C)c3c4cc(OC)c(OC)cc4ccc3c2cc1OC
2. C/C(=C\CO)CC/C=C(\C)CNc1ccccc1
3. N#CC(C(=N/NC(N)=S)/C(=N\NC(N)=S)C(C#N)c1ccccc1)c1ccccc1 (stereo unspecified)

["> 100 µM (inactive)", "> 100 µM (inactive)", "> 10 µM (inactive)"]

Below are some compounds; for each one, tell me its GI50.
1. CC1=C(C(=O)NCCCN(CCO)CCO)CC(C(=O)NCCCN(CCO)CCO)=C(C)N1
2. CCOC(=O)[C@@H](NC(=O)OC(C)(C)C)[C@@H](O)C(=O)OCC
3. CCN(CC)CCC1CCCCN1CC(=O)N1c2cc(Cl)ccc2NC(=O)CC1C (stereo unspecified)
4. Cc1cc(Cc2c(F)c(F)c(Cc3cc(C)no3)c(F)c2F)on1

1: > 100 µM (inactive); 2: > 100 µM (inactive); 3: > 100 µM (inactive); 4: > 100 µM (inactive)

Value lookup for GI50; key = O=C(NC1CCCCC1)NS(=O)(=O)c1ccc2c(c1)CCC2 [GLYHEXAMIDE]
> 100 µM (inactive)
